- testSystem: Cannabinoid receptor 1 (Homo sapiens)
- Sequence (P21554 whole entry): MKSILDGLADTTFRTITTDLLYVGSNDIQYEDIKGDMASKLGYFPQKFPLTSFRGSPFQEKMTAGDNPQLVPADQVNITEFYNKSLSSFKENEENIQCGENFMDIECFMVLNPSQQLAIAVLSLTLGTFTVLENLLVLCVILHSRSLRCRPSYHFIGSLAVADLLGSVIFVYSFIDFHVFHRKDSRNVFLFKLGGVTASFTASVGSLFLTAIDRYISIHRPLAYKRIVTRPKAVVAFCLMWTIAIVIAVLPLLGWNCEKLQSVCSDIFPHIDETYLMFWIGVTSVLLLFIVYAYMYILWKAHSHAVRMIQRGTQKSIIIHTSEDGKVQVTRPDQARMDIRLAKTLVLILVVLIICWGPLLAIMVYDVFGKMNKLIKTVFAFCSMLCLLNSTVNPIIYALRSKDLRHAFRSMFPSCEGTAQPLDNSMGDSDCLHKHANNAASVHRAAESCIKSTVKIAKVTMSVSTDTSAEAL
- methodDescription: Binding affinity to CB1 receptor
pKi: −log10 of the molar value.
Class (by pKi) -- lower band = under 7, central band = from 7 up to 8, upper band = 8 and over

Known results for compounds:
CCCCCCC1(c2cc(O)c3c(c2)OC(C)(C)[C@@H]2CC=C(C)C[C@@H]32)CC1(Br)Br (some centres undefined)    upper band
CC1=CC[C@@H]2[C@@H](C1)c1c(O)cc(C(C)(C)CCCCC(=O)NN3CCCCC3)cc1OC2(C)C    upper band
CCCc1ccc(-c2cc(O)c3c(c2)OC(C)(C)[C@@H]2CC=C(C)C[C@@H]32)cc1    central band
CCCCCCC1(c2cc(O)c3c(c2)OC(C)(C)[C@@H]2CC=C(C)C[C@@H]32)OCCO1    upper band
CCCCCCC1(c2cc(O)c3c(c2)OC(C)(C)[C@@H]2CC=C(C)C[C@@H]32)SCCS1    upper band

Ask: Please indicate the class for `CCCCC(C)(C)c1cc(O)c2c(c1)OC(C)(C)[C@@H]1CC=C(C)C[C@@H]21` based on its pKi.
Reply: upper band

Ask: Ok, now CCCCCCC1(c2cc(O)c3c(c2)OC(C)(C)[C@@H]2CC=C(C)C[C@@H]32)SC(C)C(C)S1 (some centres undefined)
Reply: central band

Ask: Next up: `C=C(CCCCCC)c1cc(O)c2c(c1)OC(C)(C)[C@@H]1CC=C(C)C[C@@H]21`
Reply: upper band

This collection of values is drawn from ChEMBL document CHEMBL1140633.
